Recorded % Binding σ1 10^−7M, one value per entry.
targetOrSystem: σ1-receptor (Cavia porcellus)
Construct: guinea pig brains were homogenized; from tissue; host or cells: guinea pig brain membranes
Sequence (Q60492 whole entry): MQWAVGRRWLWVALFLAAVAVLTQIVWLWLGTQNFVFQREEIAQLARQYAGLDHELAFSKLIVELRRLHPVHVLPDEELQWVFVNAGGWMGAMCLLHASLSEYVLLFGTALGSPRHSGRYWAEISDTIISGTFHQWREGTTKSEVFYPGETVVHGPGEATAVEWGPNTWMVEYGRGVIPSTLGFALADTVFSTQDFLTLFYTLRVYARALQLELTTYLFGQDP
protocolDescription: Sigma-1 receptor binding assay, [3H](+)-pentazocine, brain membranes
protocolConditions: compound at 10^−7 M; [3H](+)-pentazocine 0.5 nM; guinea pig brain membranes
Please reply with the bare figure in % and do not write the unit itself.

• Cc1cc(OCCN2CCC(n3cnc4cccnc43)CC2)nn1-c1ccc(Cl)c(Cl)c1 [Example 1] = 94.4

% Binding σ1 10^−7M lookup needed for CC(=O)N1CCN(CCOc2cc(C)n(-c3ccc(Cl)c(Cl)c3)n2)CC1 [Example 4] , thanks.
99.4

% Binding σ1 10^−7M lookup needed for CCOC(=O)N1CCN(CCOc2cc(C)n(-c3ccc(Cl)c(Cl)c3)n2)CC1 [Example 3] , thanks.
99.5

% Binding σ1 10^−7M lookup needed for Cc1cc(OCCN2CCC(N)C2)nn1-c1ccc(Cl)c(Cl)c1 (stereo not shown) [Example 2] , thanks.
90.7

All figures here come from patent US8202872B2.
